The reported numbers originate from paper PMC7156458.

# MEASURED_TARGET: Aβ42 (Homo sapiens, UniProt P05067)
# Sequence (P05067 672-713): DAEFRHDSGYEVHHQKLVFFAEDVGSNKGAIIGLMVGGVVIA
# PROTOCOL_SUMMARY: Th-T (thioflavin-T) assay of Aβ42 aggregation
# Type: biochemical
# CONDITION: time-course reading M98; Supplementary Fig. 47 source data
Class (by Th-T fluorescence, mean of three wells) -- bottom range: < 2; center range: ≥ 2 and < 3; top range: ≥ 3

[
  {
    "COMPOUND": "C=C1CC[C@H]2[C@]3(C)C[C@@H](C=C(C)C)O[C@H]3CC[C@]2(C)[C@@H]1Cc1c(O)c(C)c(C)oc1=O",
    "MEASURED_TARGET": "Aβ42 (Homo sapiens, UniProt P05067)",
    "CATEGORY": "center range"
  },
  {
    "COMPOUND": "C=C1CCC2C(C)(CCC=C(C)C)C(O)CCC2(C)C1Cc1c(OC)oc(C)c(C(=O)OC)c1=O (centres unmarked)",
    "MEASURED_TARGET": "Aβ42 (Homo sapiens, UniProt P05067)",
    "CATEGORY": "bottom range"
  },
  {
    "COMPOUND": "C=C1CCC2C(C)(CCC=C(C)C)C(O)CCC2(C)C1Cc1c(O)c(C)c(C)oc1=O (centres unmarked) [Compound 9, higginsianin B]",
    "MEASURED_TARGET": "Aβ42 (Homo sapiens, UniProt P05067)",
    "CATEGORY": "center range"
  },
  {
    "COMPOUND": "C=C1CC[C@H]2[C@]3(C)C[C@@H](C=C(C)C)O[C@H]3CC[C@]2(C)[C@@H]1Cc1c(OC)oc(CO)c(C)c1=O",
    "MEASURED_TARGET": "Aβ42 (Homo sapiens, UniProt P05067)",
    "CATEGORY": "top range"
  },
  {
    "COMPOUND": "C=C1CC[C@@H]2[C@](C)(CC[C@H]3O[C@H](C=C(C)C)C[C@@]23C)[C@@H]1Cc1c(OC)oc(CO)c(C(=O)OC)c1=O",
    "MEASURED_TARGET": "Aβ42 (Homo sapiens, UniProt P05067)",
    "CATEGORY": "bottom range"
  },
  {
    "COMPOUND": "C=C1CCC2C(C)(CCC=C(C)C)C(O)CCC2(C)C1Cc1c(OC)oc(CO)c(C)c1=O (centres unmarked)",
    "MEASURED_TARGET": "Aβ42 (Homo sapiens, UniProt P05067)",
    "CATEGORY": "center range"
  },
  {
    "COMPOUND": "C=C1CCC2C(C)(CCC=C(C)C)C(O)CCC2(C)C1Cc1c(O)c(C)c(C)oc1=O (centres unmarked) [Compound 4]",
    "MEASURED_TARGET": "Aβ42 (Homo sapiens, UniProt P05067)",
    "CATEGORY": "center range"
  },
  {
    "COMPOUND": "C=C1CCC2C(C)(CCC=C(C)C)C(=O)CCC2(C)C1Cc1c(O)c(C)c(C)oc1=O (centres unmarked)",
    "MEASURED_TARGET": "Aβ42 (Homo sapiens, UniProt P05067)",
    "CATEGORY": "center range"
  },
  {
    "COMPOUND": "C=C1CCC2C(C)(CC(=O)C=C(C)C)C(O)CCC2(C)C1Cc1c(O)c(C)c(C)oc1=O (centres unmarked)",
    "MEASURED_TARGET": "Aβ42 (Homo sapiens, UniProt P05067)",
    "CATEGORY": "top range"
  },
  {
    "COMPOUND": "C=C1CCC2C3(C)CC(C=C(C)C)OC3CCC2(C)C1Cc1c(OC)oc(C)c(C)c1=O (centres unmarked)",
    "MEASURED_TARGET": "Aβ42 (Homo sapiens, UniProt P05067)",
    "CATEGORY": "top range"
  },
  {
    "COMPOUND": "C=C1CC[C@H]2[C@]3(C)C[C@H](C=C(C)C)O[C@H]3CC[C@]2(C)[C@@H]1Cc1c(O)c(C)c(C)oc1=O",
    "MEASURED_TARGET": "Aβ42 (Homo sapiens, UniProt P05067)",
    "CATEGORY": "top range"
  },
  {
    "COMPOUND": "C=C1CCC2C(C)(CCC=C(C)C)C(O)CCC2(C)C1Cc1c(OC)oc(CO)c(C(=O)OC)c1=O (centres unmarked)",
    "MEASURED_TARGET": "Aβ42 (Homo sapiens, UniProt P05067)",
    "CATEGORY": "bottom range"
  }
]
